target.entity: hKv7.2/7.3 (Homo sapiens, UniProt O43525+O43526)
Construct: host or cells: HEK cells, tetracycline-inducible expression
run.description: Kv7.2/7.3 Activation Assay, QPatch planar patch-clamp single concentration screen
Type: cell-based
settings: increase in current over baseline, Kv7.2/Kv7.3 co-expressing HEK cells, compound concentration 3 μM, steady-state current at end of 2 s pulse to −30 mV
assay.readout: QPatch Kv7.2/7.3 Activity

See these solved cases before continuing.
- compound: "CC(C)[C@H](C)C(=O)Nc1nn2ccc(C(F)(F)F)cc2c1C1CCC1"
  assay.readout: "QPatch Kv7.2/7.3 Activity"
  reported: "+ (2.0-3.99 (+))"
- compound: "C[C@](O)(CC(=O)Nc1nn2c(C(F)(F)F)cccc2c1-c1ccc(F)cc1)c1ccccc1"
  assay.readout: "QPatch Kv7.2/7.3 Activity"
  reported: "+ (2.0-3.99 (+))"
- compound: "CC(C)(O)CC(=O)Nc1nn2c(C(F)(F)F)cccc2c1-c1ccc(F)cc1"
  assay.readout: "QPatch Kv7.2/7.3 Activity"
  reported: "+ (2.0-3.99 (+))"
- compound: "CC(O)(CC(=O)Nc1nn2ccc(C(F)(F)F)cc2c1C1CCC1)c1ccccc1 (stereo not drawn)"
  assay.readout: "QPatch Kv7.2/7.3 Activity"
  reported: "+ (2.0-3.99 (+))"
- compound: "CC(C)(C)CC(=O)Nc1nn2c(C(F)(F)F)cccc2c1-c1ccc(F)cc1"
  assay.readout: "QPatch Kv7.2/7.3 Activity"
  reported: "− (<1.2-fold (−))"

Hey, can you go through the list below and give me QPatch Kv7.2/7.3 Activity for every item?
1. CC(C)(O)CC(=O)Nc1nn2ccccc2c1C1CCC1
2. Cc1ccc(-c2c(NC(=O)C[C@@](C)(O)c3ccccn3)nn3ccc(C(F)(F)F)cc23)cc1
3. O=C(CC1(O)CCC1)Nc1nn2ccc(C(F)(F)F)cc2c1-c1ccc(F)cc1
4. COc1ccn2nc(NC(=O)CC(C)(O)C3CCCC3)c(C3CCC3)c2c1 (stereo not drawn)

[A]
1: − (<1.2-fold (−)); 2: + (2.0-3.99 (+)); 3: + (2.0-3.99 (+)); 4: + (2.0-3.99 (+))
